The measured values listed here are drawn from paper PMC9951859.

# protocol: Cytotoxicity assay on HEK293
# Type: cell-based, human
# conditionLabel: human; concentration at 50% cytotoxicity on HEK293; mean (n = 2); top dose tested 32 μg/mL
readoutType: IC50

compound: CC(C)[C@@H](CC[C@@H](C)[C@H]1CC[C@H]2[C@@H]3[C@H](O)C[C@H]4C[C@@H](NCCCNCCCCN)CC[C@]4(C)[C@H]3CC[C@]12C)OS(=O)(=O)O [Compound 1, Squalamine, reference compound]
readoutType: IC50
reportedResult: > 36 µM

---

# protocol: Cytotoxicity assay on HEK293
# Format: cell-based, human
# conditionLabel: human, HEK293 human embryonic kidney cells; concentration at 50% cytotoxicity on HEK293; mean (n = 2); top dose tested 32 μg/mL
pIC50: −log10 of the molar value.
Below, each of the compounds is paired with its reported pIC50 value.
readoutType: pIC50

moleculeSmiles: C[C@H](CCC(=O)NCCCNCCCCCCNCCCNC(=O)CC[C@@H](C)[C@H]1CC[C@H]2[C@@H]3[C@@H](O)C[C@@H]4C[C@H](O)CC[C@]4(C)[C@H]3CC[C@]12C)[C@H]1CC[C@H]2[C@@H]3[C@@H](O)C[C@@H]4C[C@H](O)CC[C@]4(C)[C@H]3CC[C@]12C.O=C(O)C(F)(F)F.O=C(O)C(F)(F)F
reportedResult: < 4.57
//
moleculeSmiles: C[C@H](CCC(=O)NCCCNCCCCCCCCNCCCNC(=O)CC[C@@H](C)[C@H]1CC[C@H]2[C@@H]3C[C@H](O)[C@@H]4C[C@H](O)CC[C@]4(C)[C@H]3CC[C@]12C)[C@H]1CC[C@H]2[C@@H]3C[C@H](O)[C@@H]4C[C@H](O)CC[C@]4(C)[C@H]3CC[C@]12C.O=C(O)C(F)(F)F.O=C(O)C(F)(F)F
reportedResult: < 4.59
//
moleculeSmiles: C[C@H](CCC(=O)NCCCNCCCCNCCCNC(=O)CC[C@@H](C)[C@H]1CC[C@H]2[C@@H]3[C@@H](O)C[C@@H]4C[C@H](O)CC[C@]4(C)[C@H]3CC[C@]12C)[C@H]1CC[C@H]2[C@@H]3[C@@H](O)C[C@@H]4C[C@H](O)CC[C@]4(C)[C@H]3CC[C@]12C.O=C(O)C(F)(F)F.O=C(O)C(F)(F)F
reportedResult: < 4.57
//
moleculeSmiles: C[C@H](CCC(=O)NCCCNCCCCCCCCCCCCNCCCNC(=O)CC[C@@H](C)[C@H]1CC[C@H]2[C@@H]3[C@@H](O)C[C@@H]4C[C@H](O)CC[C@]4(C)[C@H]3CC[C@]12C)[C@H]1CC[C@H]2[C@@H]3[C@@H](O)C[C@@H]4C[C@H](O)CC[C@]4(C)[C@H]3CC[C@]12C.O=C(O)C(F)(F)F.O=C(O)C(F)(F)F
reportedResult: 5.08
//
moleculeSmiles: C[C@H](CCC(=O)NCCCNCCCCCCCCNCCCNC(=O)CC[C@@H](C)[C@H]1CC[C@H]2[C@@H]3[C@@H](O)C[C@@H]4C[C@H](O)CC[C@]4(C)[C@H]3CC[C@]12C)[C@H]1CC[C@H]2[C@@H]3[C@@H](O)C[C@@H]4C[C@H](O)CC[C@]4(C)[C@H]3CC[C@]12C.O=C(O)C(F)(F)F.O=C(O)C(F)(F)F
reportedResult: < 4.59
//
moleculeSmiles: C[C@H](CCC(=O)NCCCNCCCCNCCCNC(=O)CC[C@@H](C)[C@H]1CC[C@H]2[C@@H]3C[C@H](O)[C@@H]4C[C@H](O)CC[C@]4(C)[C@H]3CC[C@]12C)[C@H]1CC[C@H]2[C@@H]3C[C@H](O)[C@@H]4C[C@H](O)CC[C@]4(C)[C@H]3CC[C@]12C.O=C(O)C(F)(F)F.O=C(O)C(F)(F)F
reportedResult: < 4.57
//
moleculeSmiles: C[C@H](CCC(=O)NCCCNCCCCCCCNCCCNC(=O)CC[C@@H](C)[C@H]1CC[C@H]2[C@@H]3C[C@H](O)[C@@H]4C[C@H](O)CC[C@]4(C)[C@H]3CC[C@]12C)[C@H]1CC[C@H]2[C@@H]3C[C@H](O)[C@@H]4C[C@H](O)CC[C@]4(C)[C@H]3CC[C@]12C.O=C(O)C(F)(F)F.O=C(O)C(F)(F)F
reportedResult: < 4.59
